- system-tested: T1, Monkey 4-1BB extracellular region recombinant protein (his-tag) (monkey)
- T1 construct: extracellular domain; also called Monkey4-1BB, his-tag
- assay-method-text: ELISA, coated monkey 4-1BB-his 200 ng/well; antibody 0.37 µg/ml
measured-quantity: absorbance at 450 nm
Answer using only a numeral; do not append any unit.

Note to self: absorbance at 450 nm recorded for 137-7 VHH-hFc recombinant antibody (Fc fusion, VHH fragment inserted into vector pFclG with human IgG1 Fc tag, expressed in HEK293F; also called CD137-7; not shown: human IgG1 Fc tag of the eukaryotic expression vector pFclG) QVQLVESGGGLVQPGGSLRLSCAASGFTLDSYAIAWFRQAPGKEREGVSCITSSGGSTNYADSVKGRFTISRDGAKNTVYLQLNSLKPEDTAIYYCAAFHRATCVILGEYDYWGQGTQVTVSS was 3.19

So, 137-39 VHH-hFc recombinant antibody (Fc fusion, VHH fragment inserted into vector pFclG with human IgG1 Fc tag, expressed in HEK293F; Preparation had non-specific bands, purity about 30%; not shown: human IgG1 Fc tag of the eukaryotic expression vector pFclG) QVQLVESGGGLVHVGESLTLSCVISGGSSNLYGIGWYRQAPGQERKLVAVLHNEHTTKYLDSVKGRFFVSGDNAKNTLYLHMNNVKVEDTAVYYCNSASGTLAGTGYFASVGPWGQGTLVTVSS ? Its absorbance at 450 nm was 0.251

The binder listed as 137-1 VHH-hFc recombinant antibody (Fc fusion, also called CD137-1; not shown: human IgG1 Fc tag of the eukaryotic expression vector pFclG) QVQLVESGGGLVQPGGSLRLSCVASGFVFSTVTMGWGRQVPGKEFEWVSGVSSEGITDYADSVKGRFTISRDNAKNTVYLEMNSLKSEDTAEYYCLIGGRWSFGTWGQGTQVTVSS shows absorbance at 450 nm equal to 3.97

binder 137-16 VHH-hFc recombinant antibody (Fc fusion, VHH fragment inserted into vector pFclG with human IgG1 Fc tag, expressed in HEK293F; Preparation had non-specific bands, purity >70%; also called CD137-16; not shown: human IgG1 Fc tag of the eukaryotic expression vector pFclG) EVQLVESGGGLVQAGASLTLSCVISGRTFSSYAMGWYRQAPGKERAFVGTITWNNDIIYSDSVKGRFTISTDDGKNTMYLQMNNLKPEDTAVYYCAAYSVPYGDFCTLNYDLMDYWGKGTLVTVSS , absorbance at 450 nm observed: 2.79

// 137-12 VHH-hFc recombinant antibody (Fc fusion, VHH fragment inserted into vector pFclG with human IgG1 Fc tag, expressed in HEK293F; not shown: human IgG1 Fc tag of the eukaryotic expression vector pFclG) QVQLVESGGGLVHPGGSLRLSCAASGFTLDDSAIGWFRQAPGKEREGVSCRSRSGYMTKYADSVKGRFTISRYNANNTMYLQMNSLKPEDTAVYYCATTRRGYCSGYETKGVDYWGQGIQVTVSS : absorbance at 450 nm value = 0.343
